- assay-procedure: refractive index (Na D-line) (dimensionless)
- condition-set: 328.15 K; 101.33 kPa; Liquid; Standard Abbe refractometry
readout: refractive index

CCOC(=O)CC(C)C [ethyl 3-methylbutanoate] :: 1.37978
CCC(=O)OCc1ccccc1 [benzyl propanoate] :: 1.48171
CCCC(=O)OCCC(C)C [3-methylbutyl butanoate] :: 1.39506
CCOC(=O)CC(C)=O [ethyl 3-oxobutanoate] :: 1.40386
CCCCCC(=O)OCC [ethyl hexanoate] :: 1.39164
CC(=O)OCc1ccccc1 [benzyl ethanoate] :: 1.48623

###

- assay-procedure: refractive index (Na D-line) (dimensionless)
- condition-set: 348.15 K; 101.33 kPa; Liquid; Standard Abbe refractometry
readout: refractive index

CC(=O)OCc1ccccc1 [benzyl ethanoate] :: 1.47701
CCOC(=O)Cc1ccccc1 [ethyl phenylacetate] :: 1.47224
CCC(=O)OCc1ccccc1 [benzyl propanoate] :: 1.47252
CCOC(=O)c1ccccc1O [ethyl 2-hydroxybenzoate] :: 1.49744
CCOC(=O)c1ccccc1 [ethyl benzoate] :: 1.48004
CCOC(=O)CC(C)C [ethyl 3-methylbutanoate] :: 1.37002
CCOC(=O)CC(C)=O [ethyl 3-oxobutanoate] :: 1.3951
CCCCCC(=O)OCC [ethyl hexanoate] :: 1.38239
COC(=O)c1ccccc1 [methyl benzoate] :: 1.49107
CCCCCCCC(=O)OCC [ethyl octanoate] :: 1.39418
CCCC(=O)OCCC(C)C [3-methylbutyl butanoate] :: 1.386
CC(=O)OCCC(C)C [3-methylbutyl ethanoate] :: 1.37487

###

- condition-set: 318.15 K, Wilhelmy-plate method
readout: surface tension liquid-gas (mN/m)

CC(=O)OCc1ccccc1 [benzyl ethanoate] :: 34.1

1 = CCOC(=O)c1ccccc1O [ethyl 2-hydroxybenzoate]
2 = CCCCCC(=O)OCC [ethyl hexanoate]
Exam item: When their surface tension liquid-gas values are compared, which is larger, 1 or 2 ? Which one? Tell me its label.
Marked response: 1

###

- condition-set: 298.15 K; 101.33 kPa; Liquid
readout: mass density (kg/m3)

CCCCCCCC(=O)OCC [ethyl octanoate] :: 862.15
CC(=O)OCc1ccccc1 [benzyl ethanoate] :: 1050.75
CCOC(=O)Cc1ccccc1 [ethyl phenylacetate] :: 1026.96
COC(=O)c1ccccc1 [methyl benzoate] :: 1083.92
CCCCCC(=O)OCC [ethyl hexanoate] :: 866.29
CCCC(=O)OCCC(C)C [3-methylbutyl butanoate] :: 858.69
CCOC(=O)CC(C)=O [ethyl 3-oxobutanoate] :: 1023.45
CCOC(=O)c1ccccc1 [ethyl benzoate] :: 1041.42
CCOC(=O)c1ccccc1O [ethyl 2-hydroxybenzoate] :: 1125
CC(=O)OCCC(C)C [3-methylbutyl ethanoate] :: 867.91
CCC(=O)OCc1ccccc1 [benzyl propanoate] :: 1027.6
CCOC(=O)CC(C)C [ethyl 3-methylbutanoate] :: 859.78

###

- condition-set: 288.15 K; 101.33 kPa; Liquid
readout: mass density (kg/m3)

CCOC(=O)c1ccccc1 [ethyl benzoate] :: 1050.78
CCOC(=O)Cc1ccccc1 [ethyl phenylacetate] :: 1036.35
CCC(=O)OCc1ccccc1 [benzyl propanoate] :: 1036.86
CCOC(=O)CC(C)C [ethyl 3-methylbutanoate] :: 869.66
CCCCCC(=O)OCC [ethyl hexanoate] :: 875.64
CC(=O)OCc1ccccc1 [benzyl ethanoate] :: 1060.11
CC(=O)OCCC(C)C [3-methylbutyl ethanoate] :: 877.72
CCCCCCCC(=O)OCC [ethyl octanoate] :: 870.79
CCOC(=O)CC(C)=O [ethyl 3-oxobutanoate] :: 1033.92
COC(=O)c1ccccc1 [methyl benzoate] :: 1093.23
CCOC(=O)c1ccccc1O [ethyl 2-hydroxybenzoate] :: 1134.72
CCCC(=O)OCCC(C)C [3-methylbutyl butanoate] :: 867.72

Data provenance: the NIST ThermoML archive (doi:10.1021/je050170x)
